study-target: T1, recombinant human CD70 (Flag-TNC-CD70) (human, UniProt P32970 39-193)
T1 construct: extracellular domain; Captured by anti-Flag mAb in ELISA; as 'recombinant human CD70' immobilised on Biacore CM5 chips; TNC is for trimerisation; also called recombinant CD70; human recombinant CD70; not shown: Flag tag and TNC trimerisation domain
T1 sequence (looked up): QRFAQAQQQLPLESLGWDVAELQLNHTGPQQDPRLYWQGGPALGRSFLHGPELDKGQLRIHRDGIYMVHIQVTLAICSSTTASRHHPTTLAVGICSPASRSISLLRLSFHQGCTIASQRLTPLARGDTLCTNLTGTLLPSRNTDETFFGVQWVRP
experiment: Biacore; recombinant human CD70 on CM5 chip; Fab injected
Provide the reported koff of each item.
Kindly answer with a numeric value in s⁻¹, unit omitted.

What value of measured koff is listed for 4D2 Fab (Fab, V domains shown, Llama-derived Fab) VH: QVQLQESGPGLVKPSQTLSLACTVSGGSITTSYYYWSWIRQPPGKGLEWMGAIGSRGSTYYSPSLKTRTSISRDTSKNQFTLQLSSVTPEDTAVYYCARVTGEITYNSGSYYYTLNLFDYWGQGTQVTVSS VL: QSVLTQPPSLSASPGSSVRLTCTLSSGNSVGNYDISWYQQKAGSPPRYLLYYYSDSYKNQGSGVPSRFSGSKDPSANAGLLLISGLQAEDEADYYCSVSNSGTYKPVFGGGSKLTVLG ?
0.00033

What value of measured koff is listed for 9D1 Fab (Fab, V domains shown, Llama-derived Fab) VH: EVQLVESGGGLVQPGGSLRLSCAASGFTFSVYYMNWVRQAPGKGLEWVSDINNEGGTTYYADSVKGRFTISRDNAKNTLTLQMNSLKPEDTALYYCVRDAGYSNHVPIFDSWGQGTQVIVAS VL: QAVVTQEPSLSVSPGGTVTLTCGLSSGSVTSSHYPGWYQQTPGQAPRLLIFNTNSRHSGVPSRFSGSISGNKAALTITGAQPEDEADYYCALLNIDDGSTMFGGGTHLTVLG ?
0.00048

What value of measured koff is listed for 24F2 Fab (Fab, V domains shown, Llama-derived Fab) VH: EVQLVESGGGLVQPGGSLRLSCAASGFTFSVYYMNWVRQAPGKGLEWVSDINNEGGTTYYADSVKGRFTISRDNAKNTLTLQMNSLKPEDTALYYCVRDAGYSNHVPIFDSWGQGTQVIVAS VL: QSALTQPSAVSVSLGQTARITCRGDTLRNYHANWYRQKPGQAPVLVIYGDDIRPSGIPERFSGSRLGGTATLTVSGAQAEDEADYYCQSSDSSGYRVVFGGGTKLTVLG ?
0.00016
